// data source = patent US8808742B2

assay: Single-dose capsule administration in human cancer patients, concentration-time profiles; settings: in vivo, oral, 4 mg, capsules of example 95A, Dose 4 mg, Day 1, read-out: C12 hr
Reported property: concentration at 12 h (ng/mL)
Lab book: enter the figure in ng/mL, no units written.

Retrieve concentration at 12 h measured for COc1cc(F)c(F)c(Nc2ccc(I)cc2F)c1NS(=O)(=O)C1(C[C@H](O)CO)CC1 and print it.
0.134
